Target System: Adenosine kinase (Homo sapiens, UniProt P55263)
Sequence (P55263 2-362 limits assumed): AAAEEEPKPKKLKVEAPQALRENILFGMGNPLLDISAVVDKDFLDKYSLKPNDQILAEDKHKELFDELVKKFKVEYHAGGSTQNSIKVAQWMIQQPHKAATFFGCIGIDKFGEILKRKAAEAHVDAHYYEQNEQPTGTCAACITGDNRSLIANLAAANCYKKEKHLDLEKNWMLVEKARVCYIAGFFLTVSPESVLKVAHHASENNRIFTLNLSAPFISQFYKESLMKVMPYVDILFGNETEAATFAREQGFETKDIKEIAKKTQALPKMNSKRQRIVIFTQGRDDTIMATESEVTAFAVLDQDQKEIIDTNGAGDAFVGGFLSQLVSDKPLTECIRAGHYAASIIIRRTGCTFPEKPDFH
Assay Remarks: Binding affinity to human ADK expressed in Escherichia coli BL21(DE3) cells in presence of adenosine by two dimensional 15N/1H triple-resonance HSQC NMR spectroscopy
Activity calls are given as the source filed them. The calls are words filed in the database; no cut-off is given here.
Readout Kind: Activity

Please review the following examples before continuing.
{"Smiles Str": "Nc1ncnc2c1c(-c1nccs1)cn2[C@@H]1O[C@H](CO)[C@@H](O)[C@H]1O", "Result": "Active"}
{"Smiles Str": "Nc1ncnc2c1c(-c1cccc3c1Oc1ccccc1S3)cn2[C@@H]1O[C@H](CO)[C@@H](O)[C@H]1O", "Result": "Active"}
{"Smiles Str": "C#Cc1cn([C@@H]2O[C@H](CO)[C@@H](O)[C@H]2O)c2ncnc(N)c12", "Result": "Active"}
{"Smiles Str": "CC(C)c1cccc(-c2cn([C@@H]3O[C@H](CO)[C@@H](O)[C@H]3O)c3ncnc(N)c23)c1", "Result": "Active"}

Next, consider the following compound.
The value of Activity measured for the compound `Nc1ncnc2c1c(-c1ccco1)cn2[C@@H]1O[C@H](CO)[C@@H](O)[C@H]1O` turned out to be Active

----------
System: Mycobacterium tuberculosis
Assay Remarks: Binding affinity to Mycobacterium tuberculosis ADK expressed in Escherichia coli BL21(DE3) cells assessed as relative STD enhancements of signal from H-1' at 500 uM by 1H STD NMR spectroscopy
Readout Kind: Activity (%)
Numbers only; they are read as %.

{"Smiles Str": "Nc1ncnc2c1c(-c1cccc3c1Oc1ccccc1S3)cn2[C@@H]1O[C@H](CO)[C@@H](O)[C@H]1O", "Unit Annotation": "%", "Activity": 100}

# Activity measured on Mycobacterium tuberculosis for item `Nc1ncnc2c1c(-c1nccs1)cn2[C@@H]1O[C@H](CO)[C@@H](O)[C@H]1O` = 100

----------
Target System: Adenosine kinase (Homo sapiens)
Assay Remarks: Binding affinity to human ADK expressed in Escherichia coli BL21(DE3) cells assessed as relative STD enhancements of signal from Ar at 500 uM by 1H STD NMR spectroscopy
Readout Kind: Activity
Just the number plus its unit, please.

Please review the following examples before continuing.
{"Smiles Str": "CC(C)c1cccc(-c2cn([C@@H]3O[C@H](CO)[C@@H](O)[C@H]3O)c3ncnc(N)c23)c1", "Activity": "52%"}
{"Smiles Str": "Nc1ncnc2c1c(-c1nccs1)cn2[C@@H]1O[C@H](CO)[C@@H](O)[C@H]1O", "Activity": "52%"}
{"Smiles Str": "Nc1ncnc2c1c(-c1cccc3c1Oc1ccccc1S3)cn2[C@@H]1O[C@H](CO)[C@@H](O)[C@H]1O", "Activity": "60%"}

Next, consider the following molecule.
The value of Activity measured for the molecule `Nc1ncnc2c1c(-c1ccco1)cn2[C@@H]1O[C@H](CO)[C@@H](O)[C@H]1O` turned out to be 74%

----------
Target System: Adenosine kinase (Homo sapiens)
Assay Remarks: Binding affinity to human ADK expressed in Escherichia coli BL21(DE3) cells assessed as relative STD enhancements of signal from H-2 at 500 uM by 1H STD NMR spectroscopy
Mark condition met only when Activity stays strictly below 60%. Values equal to the cut-off are condition not met.

# example entries with known answers
{"Smiles Str": "Nc1ncnc2c1c(-c1nccs1)cn2[C@@H]1O[C@H](CO)[C@@H](O)[C@H]1O", "Label Class": "condition met"}
{"Smiles Str": "Nc1ncnc2c1c(-c1ccco1)cn2[C@@H]1O[C@H](CO)[C@@H](O)[C@H]1O", "Label Class": "condition not met"}
{"Smiles Str": "Nc1ncnc2c1ncn2[C@@H]1O[C@H](COP(=O)(O)OP(=O)(O)OP(=O)(O)O)[C@@H](O)[C@H]1O", "Label Class": "condition met"}
{"Smiles Str": "Nc1ncnc2c1ncn2[C@@H]1O[C@H](CO)[C@@H](O)[C@H]1O", "Label Class": "condition met"}
{"Smiles Str": "Nc1ncnc2c1c(-c1cccc3c1Oc1ccccc1S3)cn2[C@@H]1O[C@H](CO)[C@@H](O)[C@H]1O", "Label Class": "condition met"}

For `CC(C)c1cccc(-c2cn([C@@H]3O[C@H](CO)[C@@H](O)[C@H]3O)c3ncnc(N)c23)c1` , is the recorded Activity below the cut-off of 60%?
condition not met

For `C#Cc1cn([C@@H]2O[C@H](CO)[C@@H](O)[C@H]2O)c2ncnc(N)c12` , is the recorded Activity below the cut-off of 60%?
condition met
